// data source = patent US10849907B2

Target: human BCRP (Homo sapiens)
Construct: expressed in transfected cells; host or cells: MDCKII (Madin-Darby canine kidney) cells
Sequence (Q9UNQ0 whole entry): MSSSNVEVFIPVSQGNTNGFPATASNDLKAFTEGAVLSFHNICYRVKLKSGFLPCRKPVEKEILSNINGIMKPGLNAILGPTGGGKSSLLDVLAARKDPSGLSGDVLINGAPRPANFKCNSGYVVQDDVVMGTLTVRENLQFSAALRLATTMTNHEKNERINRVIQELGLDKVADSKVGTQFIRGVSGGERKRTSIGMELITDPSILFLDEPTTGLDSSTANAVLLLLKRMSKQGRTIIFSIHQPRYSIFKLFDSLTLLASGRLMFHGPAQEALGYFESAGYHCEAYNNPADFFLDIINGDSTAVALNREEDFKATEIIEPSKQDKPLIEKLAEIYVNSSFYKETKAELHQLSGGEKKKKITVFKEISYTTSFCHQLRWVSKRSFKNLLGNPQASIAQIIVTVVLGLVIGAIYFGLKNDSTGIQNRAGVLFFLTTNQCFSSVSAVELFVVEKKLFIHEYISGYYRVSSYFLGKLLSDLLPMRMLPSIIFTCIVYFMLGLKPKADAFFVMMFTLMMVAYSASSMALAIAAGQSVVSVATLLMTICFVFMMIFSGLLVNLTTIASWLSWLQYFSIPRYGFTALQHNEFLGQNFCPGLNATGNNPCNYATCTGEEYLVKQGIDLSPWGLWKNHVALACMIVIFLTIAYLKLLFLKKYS
Assay: MDCK assay BCRP: permeability across MDCK-BCRP monolayers
Type: in vitro ADME
Settings: pH 7.4, MDCK-BCRP, Papp (b-a) divided by Papp (a-b)
RECORDED METRIC: efflux ratio

P = Cc1ccccc1COC(=O)N1CCO[C@H](c2nc3cccnc3[nH]2)C1
Q = Cc1ccc(COC(=O)N2CCO[C@H](c3nc4cccnc4[nH]3)C2)cc1F
R = O=C(OCc1ccccc1F)N1CCO[C@H](c2nc3cccnc3[nH]2)C1
Lookup: // sort listed items: efflux ratio descending Rank the items, then write their labels in that order.
Found: R, P, Q
(R: 5.2, P: 1.8, Q: 1)
